molecular target: USP1/UAF1 enzyme (Homo sapiens, UniProt O94782); test: USP1/UAF1 deubiquitination assay (ubiquitin-rhodamine 110 substrate); details: read-out: USP1 IC50 (Ub-Rho)
Sequence (O94782 whole entry): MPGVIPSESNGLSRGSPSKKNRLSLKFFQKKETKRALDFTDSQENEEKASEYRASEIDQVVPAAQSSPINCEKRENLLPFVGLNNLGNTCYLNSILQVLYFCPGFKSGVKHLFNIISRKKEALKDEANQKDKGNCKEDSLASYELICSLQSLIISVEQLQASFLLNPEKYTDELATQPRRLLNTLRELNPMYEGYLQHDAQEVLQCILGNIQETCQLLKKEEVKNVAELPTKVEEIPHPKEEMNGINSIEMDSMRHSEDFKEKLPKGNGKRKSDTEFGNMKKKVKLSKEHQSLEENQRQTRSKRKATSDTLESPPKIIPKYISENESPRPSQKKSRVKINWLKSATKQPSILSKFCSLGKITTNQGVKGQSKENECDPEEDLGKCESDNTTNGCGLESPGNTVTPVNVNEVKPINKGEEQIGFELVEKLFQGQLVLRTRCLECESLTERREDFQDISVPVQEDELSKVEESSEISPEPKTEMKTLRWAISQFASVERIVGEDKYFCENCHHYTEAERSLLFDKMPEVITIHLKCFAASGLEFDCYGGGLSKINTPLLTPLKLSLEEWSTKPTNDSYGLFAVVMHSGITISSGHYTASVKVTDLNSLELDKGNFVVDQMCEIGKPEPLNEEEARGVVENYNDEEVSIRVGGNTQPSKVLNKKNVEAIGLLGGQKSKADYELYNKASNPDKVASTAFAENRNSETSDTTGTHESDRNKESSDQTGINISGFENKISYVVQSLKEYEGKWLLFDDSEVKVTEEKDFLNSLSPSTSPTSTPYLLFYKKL
Sequence (Q8TAF3 whole entry partner): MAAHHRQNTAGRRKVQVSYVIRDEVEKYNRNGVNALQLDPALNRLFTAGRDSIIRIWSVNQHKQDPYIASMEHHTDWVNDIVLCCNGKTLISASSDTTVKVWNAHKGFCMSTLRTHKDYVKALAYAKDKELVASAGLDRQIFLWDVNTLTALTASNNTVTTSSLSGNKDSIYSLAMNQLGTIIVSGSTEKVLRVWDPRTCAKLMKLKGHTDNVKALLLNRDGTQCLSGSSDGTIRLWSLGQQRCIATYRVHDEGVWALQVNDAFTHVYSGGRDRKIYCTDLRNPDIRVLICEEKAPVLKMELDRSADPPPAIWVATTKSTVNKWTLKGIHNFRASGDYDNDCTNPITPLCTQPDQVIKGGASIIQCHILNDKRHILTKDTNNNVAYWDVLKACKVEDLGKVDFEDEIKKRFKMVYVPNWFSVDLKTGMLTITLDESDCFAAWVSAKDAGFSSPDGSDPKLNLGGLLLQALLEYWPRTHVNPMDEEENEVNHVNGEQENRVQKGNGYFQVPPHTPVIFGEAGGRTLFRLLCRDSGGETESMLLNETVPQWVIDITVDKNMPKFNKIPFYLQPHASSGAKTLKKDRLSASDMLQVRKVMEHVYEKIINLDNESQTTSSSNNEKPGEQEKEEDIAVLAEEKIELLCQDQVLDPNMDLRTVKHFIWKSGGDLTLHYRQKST

- compound: "CC(C)Oc1cccnc1-c1ccc(CN2C(=O)CCn3nc(-c4c(Cl)cnn4C(C)C)cc32)cc1 [Example 291]"
  tgt: "USP1/UAF1 enzyme (Homo sapiens, UniProt O94782)"
  IC50: "< 100 nM"
- compound: "COc1ncnc(C2CC2)c1-c1nc2n(n1)CCC(=O)N2[C@H](C)c1ccc(-n2nc(C(F)(F)F)cc2C)c(F)c1 [Example 204]"
  tgt: "USP1/UAF1 enzyme (Homo sapiens, UniProt O94782)"
  IC50: "< 100 nM"
- compound: "COc1ncnc(C2CC2)c1-c1nc2n(n1)CCC(=O)N2C(C)c1ccc(-c2ncccc2OC(C)C)cc1 (centres unmarked) [Example 220]"
  tgt: "USP1/UAF1 enzyme (Homo sapiens, UniProt O94782)"
  IC50: "< 100 nM"
- compound: "COc1cc(CN2C(=O)CCn3nc(-c4c(OC)ncnc4C(C)C)nc32)ccc1-c1nc(C(F)(F)F)cn1C(C)C [Example 46]"
  tgt: "USP1/UAF1 enzyme (Homo sapiens, UniProt O94782)"
  IC50: "100 to 500 nM"
- compound: "COc1ccnnc1-c1ccc(CN2C(=O)CCn3nc(-c4c(Cl)cnn4C(C)C)cc32)cc1Cl [Example 293]"
  tgt: "USP1/UAF1 enzyme (Homo sapiens, UniProt O94782)"
  IC50: "> 500 nM"
- compound: "CCn1cc(C(F)(F)F)nc1-c1ccc(CN2C(=O)C(N)Cn3nc(-c4c(Cl)cnn4C(C)C)cc32)cc1 (centres unmarked) [Example 233]"
  tgt: "USP1/UAF1 enzyme (Homo sapiens, UniProt O94782)"
  IC50: "< 100 nM"
- compound: "CC(C)n1cc(C(F)(F)F)nc1-c1ccc([C@H](C)N2C(=O)CCn3nc(-c4c(Cl)cnn4C(C)C)nc32)cc1 [Example 177]"
  tgt: "USP1/UAF1 enzyme (Homo sapiens, UniProt O94782)"
  IC50: "< 100 nM"
- compound: "CCn1cc(C(F)(F)F)nc1-c1ccc(CN2C(=O)CCn3nc(-c4c(OC)ncnc4C4CC4)cc32)cc1OC [Example 136]"
  tgt: "USP1/UAF1 enzyme (Homo sapiens, UniProt O94782)"
  IC50: "100 to 500 nM"
- compound: "CCn1cc(C(F)(F)F)nc1-c1ccc([C@H](C)N2C(=O)CCn3nc(-c4c(Cl)cnn4C(C)C)nc32)cc1OC [Example 179]"
  tgt: "USP1/UAF1 enzyme (Homo sapiens, UniProt O94782)"
  IC50: "100 to 500 nM"
- compound: "CCn1cc(C(F)(F)F)nc1-c1ccc(CN2C(=O)CCn3nc(-c4ccnn4C(C)C)c(Cl)c32)cc1 [Example 268]"
  tgt: "USP1/UAF1 enzyme (Homo sapiens, UniProt O94782)"
  IC50: "> 500 nM"
- compound: "CCn1cc(C(F)(F)F)nc1-c1ccc(CN2C(=O)[C@H](C)Cn3nc(-c4c(OC)ncnc4C4CC4)nc32)cc1F (single isomer, unassigned) [Example 348]"
  tgt: "USP1/UAF1 enzyme (Homo sapiens, UniProt O94782)"
  IC50: "< 100 nM"
- compound: "CC(C)n1ncc(Cl)c1-c1cc2n(n1)CCC(=O)N2Cc1ccc(-c2ncnn3cccc23)c(Cl)c1 [Example 276]"
  tgt: "USP1/UAF1 enzyme (Homo sapiens, UniProt O94782)"
  IC50: "100 to 500 nM"
- compound: "CCn1cc(C(F)(F)F)nc1-c1ccc(NC2CCCn3nc(-c4c(OC)ncnc4C4CC4)cc32)cc1 (centres unmarked) [Example 240]"
  tgt: "USP1/UAF1 enzyme (Homo sapiens, UniProt O94782)"
  IC50: "< 100 nM"
- compound: "CC(C)n1ncc(Cl)c1-c1cc2n(n1)CCC(=O)N2Cc1ccc(-c2nccc3c2N(C)CCO3)c(Cl)c1 [Example 299]"
  tgt: "USP1/UAF1 enzyme (Homo sapiens, UniProt O94782)"
  IC50: "> 500 nM"

----------
The entries below are paired with their reported IC50.
molecular target: USP1/UAF1 enzyme (Homo sapiens, UniProt O94782); assay: USP1/UAF1 deubiquitination assay (ubiquitin-rhodamine 110 substrate); conditions: read-out: USP1 IC50 (Ub-Rho)

- compound: "COc1ncnc(C2CC2)c1-c1cc2n(n1)CCC(=O)N2Cc1ccc(-n2nc(C(F)(F)F)cc2C)c(F)c1"
  IC50: "< 100 nM"
- compound: "CC(C)n1cc(C(F)(F)F)nc1-c1ccc(CN2C(=O)CCn3nc(-c4c(Cl)cnn4C(C)C)cc32)cc1"
  IC50: "< 100 nM"
- compound: "CCn1cc(C(F)(F)F)nc1-c1ccc(CN2C(=O)CCn3nc(-c4c(C5CC5)cnn4C(C)C)cc32)cc1"
  IC50: "100 to 500 nM"
- compound: "COc1cccnc1-c1ccc(CN2C(=O)CCn3nc(-c4c(OC)ncnc4C4CC4)nc32)cc1Cl"
  IC50: "100 to 500 nM"
- compound: "CCOc1cc(C(F)(F)F)nn1-c1ccc(CN2C(=O)CCn3nc(-c4c(Cl)cnn4C(C)C)cc32)cc1"
  IC50: "< 100 nM"
- compound: "COc1ncnc(C2CC2)c1-c1cc2n(n1)CCCN2Cc1ccc(-c2nc(C(F)(F)F)cn2C(C)C)c(F)c1"
  IC50: "< 100 nM"
- compound: "CC(C)n1ncc(Cl)c1-c1cc2n(n1)CCC(=O)N2Cc1ccc(-c2cn(C)c(C(F)(F)F)n2)cc1"
  IC50: "< 100 nM"
- compound: "CCn1cc(C(F)(F)F)nc1-c1ccc(CN2C(=O)[C@@H](C)Cn3nc(-c4c(OC)ncnc4C4CC4)nc32)cc1F (single isomer, unassigned)"
  IC50: "< 100 nM"
- compound: "CC(C)n1ncc(Cl)c1-c1cc2n(n1)CCC(=O)N2Cc1ccc(-c2nc(C(F)(F)F)cn2C)nc1"
  IC50: "100 to 500 nM"
- compound: "CCn1cc(C(F)(F)F)nc1-c1ccc(CC2NCCn3nc(-c4c(OC)ncnc4C4CC4)cc32)cc1 (centres unmarked)"
  IC50: "100 to 500 nM"
- compound: "CCn1cc(C(F)(F)F)nc1-c1ccc(CN2C(=O)CCn3nc(-c4c(Cl)cnn4[C@@H](C)COC)cc32)cc1F"
  IC50: "< 100 nM"
- compound: "COc1cncnc1-c1ccc(CN2C(=O)CCn3nc(-c4c(Cl)cnn4C(C)C)cc32)cc1Cl"
  IC50: "> 500 nM"
- compound: "COc1ncnc(C2CC2)c1-c1nc2n(n1)CCC(=O)N2Cc1ccc(-c2nc(C(F)(F)F)cn2C)c(F)c1"
  IC50: "< 100 nM"
- compound: "Cc1cnn(C(C)C)c1-c1cc2n(n1)CC(C)C(=O)N2Cc1ccc(-c2nc(C(F)(F)F)cn2C)cc1 (centres unmarked)"
  IC50: "100 to 500 nM"

----------
target: USP1/UAF1 enzyme (Homo sapiens, UniProt O94782); assay: USP1/UAF1 deubiquitination assay (ubiquitin-rhodamine 110 substrate); details: read-out: USP1 IC50 (Ub-Rho)
The entries below are paired with their reported IC50.

- compound: "CCn1cc(C(F)(F)F)nc1-c1ccc(Cn2c(=O)ccn3nc(-c4c(OC)ncnc4C4CC4)nc23)cc1"
  IC50: "< 100 nM"
- compound: "COc1ncnc(C2CC2)c1-c1nc2n(n1)CCC(=O)N2C(C)c1ccc(-n2nc(C(F)(F)F)cc2OCC(F)F)cc1 (centres unmarked)"
  IC50: "< 100 nM"
- compound: "CC(C)n1ncc(Cl)c1-c1cc2n(n1)CC(C)(O)C(=O)N2Cc1ccc(-c2nc(C(F)(F)F)cn2C)cc1 (centres unmarked)"
  IC50: "100 to 500 nM"
- compound: "COc1cc([C@@H](C)N2C(=O)CCn3nc(-c4c(OC)ncnc4C4CC4)cc32)ccc1-c1nc(C(F)(F)F)cn1C(C)C"
  IC50: "< 100 nM"
- compound: "COc1cccnc1-c1ccc(N[C@H]2CCCn3nc(-c4c(OC)ncnc4C4CC4)cc32)cc1F (single isomer, unassigned)"
  IC50: "100 to 500 nM"
- compound: "COc1ncnc(C2CC2)c1-c1cc2n(n1)CCC(=O)N2Cc1ccc(-n2nc(C(F)(F)F)cc2OC)cc1"
  IC50: "< 100 nM"
- compound: "COc1ncnc(C2CC2)c1-c1cc2n(n1)CCC(=O)N2Cc1ccc(-c2nc(C(F)(F)F)cn2CCF)cc1"
  IC50: "< 100 nM"
- compound: "CCn1cc(C(F)(F)F)nc1-c1ccc(CN2C(=O)CCn3nc(-c4c(Cl)cnn4C(C)CO)cc32)cc1 (centres unmarked)"
  IC50: "100 to 500 nM"
- compound: "CCn1cc(C(F)(F)F)nc1-c1ccc(NC2CCCCn3nc(-c4c(Cl)cnn4C(C)C)cc32)cc1 (centres unmarked)"
  IC50: "< 100 nM"
- compound: "CC(CF)n1cc(C(F)(F)F)nc1-c1ccc(NC2CCCn3nc(-c4c(OC(F)F)ncnc4C4CC4)cc32)cc1 (centres unmarked)"
  IC50: "< 100 nM"
- compound: "COc1ncnc(C2CC2)c1-c1nc2n(n1)CCC(=O)N2Cc1ccc(-c2nc(C(F)(F)F)cn2C(C)C)cc1"
  IC50: "< 100 nM"
- compound: "CCn1cc(C(F)(F)F)nc1-c1ccc(CN2C(=O)CCn3nc(-c4c(OC(F)F)ncnc4C4CC4)nc32)cc1F"
  IC50: "< 100 nM"
- compound: "CCn1cc(C(F)(F)F)nc1-c1ccc(CN2C(=O)C(C)Cn3nc(-c4c(OC(F)F)ncnc4C4CC4)nc32)cc1F (centres unmarked)"
  IC50: "< 100 nM"
- compound: "Cc1cc(-c2ccc(CN3C(=O)CCn4nc(-c5c(Cl)cnn5C(C)C)cc43)cc2Cl)n(C)n1"
  IC50: "> 500 nM"
